Listing: Lum 120: Area of selected sequences
System: in vitro model of the blood brain barrier (brain capillary endothelial cells co-cultured with glial cells)
Experiment: In vitro BBB model: passage of p97 tryptic digest peptides, LC-MS/MS peak areas in luminal and abluminal compartments
Format: in vitro ADME, rat
Details: tryptic peptides, luminal compartment, 120 minutes, 3 micron pore size, LC-MS/MS peak area
reported.metric: Lum 120: Area

residue.sequence | reported.metric | quantitative.readout
NYPSSLCALCVGDEQGR [tryptic peptide fragment of human p97] | Lum 120: Area | 6.15E+08
EHGLKPVVGEVYDQEVGTSYYAVAVVRR [tryptic peptide fragment of human p97] | Lum 120: Area | 0.00E+00
LCRGDSSGEGVCDK [tryptic peptide fragment of human p97] | Lum 120: Area | 2.17E+05
GDSSGEGVCDKSPLER [tryptic peptide fragment of human p97] | Lum 120: Area | 5.08E+08
TVGWNVPVGYLVESGR [tryptic peptide fragment of human p97] | Lum 120: Area | 9.38E+07
ADTDGGLIFRLLNEGQR [tryptic peptide fragment of human p97] | Lum 120: Area | 3.69E+07
AVSDYFGGSCVPGAGETSYSESLCR [tryptic peptide fragment of human p97] | Lum 120: Area | 5.51E+09
IQAEQVDAVTLSGEDIYTAGK [tryptic peptide fragment of human p97] | Lum 120: Area | 3.48E+06
DSSHAFTLDELRGK [tryptic peptide fragment of human p97] | Lum 120: Area | 0.00E+00
